The reported measurements were obtained from paper PMC10397247.

Study System: T1, 4H3365-AA
T1 chain: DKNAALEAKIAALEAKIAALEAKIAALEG
Assay Summary: two-hybrid library CCmax;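 also: natural log of median RNA to DNA barcode read ratio; higher means stronger binding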
Protocol Conditions: mean of both orientations

Binder	interaction score
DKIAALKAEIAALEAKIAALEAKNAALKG [4H2600-AA]	-0.236
DKIAALKAKNAALKAEIAALKAENAALKG [4H3020-AA]	-1.49
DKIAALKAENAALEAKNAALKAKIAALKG [4H2750-AA]	-1.78
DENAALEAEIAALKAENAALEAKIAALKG [4H1110-AA]	-1.2
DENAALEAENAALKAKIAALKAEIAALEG [4H1257-AA]	-1.46
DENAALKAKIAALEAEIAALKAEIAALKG [4H1802-AA]	-1.3
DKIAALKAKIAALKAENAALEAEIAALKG [4H2898-AA]	-1.78
